B1: GST-tagged FCHSD2 SH3-2 (aa568-629), wild type [human] / ITSN1 SH3d (aa1076-1138), recombinant [human] (parent complex)
chain 1: SVCFVKALYDYEGQTDDELSFPEGAIIRILNKENQDDDGFWEGEFNGRIGVFPSVLVEELSA
chain 2: PEIAQVIASYTATGPEQLTLAPGQLILIRKKNPGGWWEGELQARGKKRQIGWFPANYVKLLSP

Variants of: B1
ASSAY: GST pull-down, Coomassie stained gel, band quantification; n = 3 experiments, mean ± SD; parent: 1; read off a plot
This listing pairs variants with measured ratio to parent.

VARIANT	ratio to parent
chain 1 D16A	~1.1
chain 1 Y9S	~0.45
chain 1 V55K, chain 1 L56K	~0.1
chain 1 Y9S, chain 1 F40S	~0.15
chain 1 N46A	~1.2
chain 1 F40S	~0.3
chain 1 V55S	~0.8
chain 1 D17K	~0.9
